Provenance of the data: patent US20110257148A1

Counter-ions that a name gives are not always drawn.
OBSERVED PROPERTY: melting point

CCCN1CC(O)(c2cc(F)cc(F)c2)C1 (as salt: fumaric acid salt)
162 to 164 °C
CCCN1CC(O)(c2cccc(Cl)c2F)C1 (as salt: fumaric acid salt) [Example 6]
167 to 168 °C
CC(C)N1CC(O)(c2cc(F)cc(F)c2)C1 (as salt: fumaric acid salt)
185 to 186 °C
CCCN1CC(O)(c2cccc(F)c2F)C1 (as salt: fumaric acid salt) [Example 1]
161 to 165 °C
CCCN1CC(O)(c2ccc(F)c(F)c2)C1 (as salt: fumaric acid salt)
157 to 159 °C

Noted for CCCN1CC(O)(c2cc(F)cc(Cl)c2)C1 (as salt: fumaric acid salt) : its melting point reads 147 to 149 °C
